Test system: T47D
Test: NCI tumour cell line growth inhibition, 48 h
Active and inactive are the calls of the source. Rule as the data show it: active = GI50 up to about 1.1 µM and inactive = higher.
reportedEndpoint: GI50

Use these answered entries as a reference point.
compound: Cc1ccc(-c2cc(-c3c(C)nn(C)c(=O)c3N)n[nH]2)cc1
reportedEndpoint: GI50
endpointValue: 53.5 µM (inactive)
--
compound: CCN(CCO)CCNc1ccc(C)c2sc3ccccc3c(=O)c12
reportedEndpoint: GI50
endpointValue: 3.01 µM (inactive)
--
compound: CCN(CCC#N)C(=O)Nc1ccccc1
reportedEndpoint: GI50
endpointValue: > 100 µM (inactive)
--
compound: CCOC(=O)c1cc(C2CCN(Cc3ccccc3)C2=O)c(C(=O)/C=C(/C)N)[nH]1 (stereo unspecified)
reportedEndpoint: GI50
endpointValue: > 100 µM (inactive)
--
compound: C=CCC1(O)CC(n2cc(C)c(=O)[nH]c2=O)OC1CO[Si](C)(C)C(C)(C)C (stereo unspecified)
reportedEndpoint: GI50
endpointValue: 55.2 µM (inactive)

Switching to the query record.
Req: Value lookup for GI50; key = CC(NC(=O)NC(C)(C)C)NC(=O)C(N)CC(=O)O (stereo unspecified)
Resp: > 100 µM (inactive)
